molecular target: NLuc::LmxCLK1 (Leishmania mexicana); experiment: cell-based; assay type: cell-based; settings: read-out: Target occupancy Average
ASSAY_METRIC: receptor occupancy at 10 µM (%)
A number alone suffices; assume %.

Here's what some known entries look like.
COMPOUND: Cn1cc(C2=C(c3ccc(Cl)cc3Cl)C(=O)NC2=O)c2ccccc21 [SB216763]
RECORDED_MEASUREMENT: -4.4
--
COMPOUND: Cn1cnc(N)c2ncnc1-2 [3-Methyladenine]
RECORDED_MEASUREMENT: -2.2
--
COMPOUND: C=CC(=O)Nc1cccc(Oc2nc(Nc3ccc(N4CCN(C)CC4)cc3)ncc2Cl)c1 [WZ3146]
RECORDED_MEASUREMENT: 35.2
--
COMPOUND: Cc1nc(Nc2ncc(C(=O)Nc3c(C)cccc3Cl)s2)cc(N2CCN(CCO)CC2)n1 [Dasatinib]
RECORDED_MEASUREMENT: -14.6
--
COMPOUND: CNC(=O)c1cccc(-c2ccc3c(N4CCOC[C@@H]4C)nc(N4CCOC[C@@H]4C)nc3n2)c1 [AZD2014]
RECORDED_MEASUREMENT: -1.4
--
COMPOUND: CN(C)Cc1cccc(N/C(=C2\C(=O)Nc3cc(C(N)=O)ccc32)c2ccccc2)c1 [BIX 02188]
RECORDED_MEASUREMENT: -6.5
--
COMPOUND: Cc1ccc(C(=O)Nc2ccc(CN3CCN(C)CC3)c(C(F)(F)F)c2)cc1C#Cc1cnc2[nH]ncc2c1 [GZD824]
RECORDED_MEASUREMENT: 46.5
--
COMPOUND: COc1cccc2cc(-c3nc([C@H]4CC[C@H](C(=O)O)CC4)n4ncnc(N)c34)[nH]c12 [OSI-027]
RECORDED_MEASUREMENT: -8.9

Give the reported value of receptor occupancy at 10 µM for this record: C[C@H]1[C@H](C)CC[C@]2(C(=O)O)CC[C@]3(C)C(=CC[C@@H]4[C@@]5(C)C[C@@H](O)[C@H](O)[C@@](C)(CO)[C@@H]5CC[C@]43C)[C@H]12 [Asiatic Acid]
-4.4

Determine its reported receptor occupancy at 10 µM: CCNc1nc(Nc2cc(F)c(C(=O)N3CCOCC3)cc2OC)ncc1C(F)(F)F [GNE-7915]
-3.7

Give reported receptor occupancy at 10 µM value for N#CC1(c2ccc(NC(=O)c3cccnc3NCc3ccncc3)cc2)CCCC1 [Apatinib]
-8.5

Could you please provide reported receptor occupancy at 10 µM for C=CC(=O)Nc1cccc(Sc2nc(Nc3ccc(N4CCN(C)CC4)cc3)ncc2Cl)c1 [WZ8040] ? Thanks!
60.8

Fill in reported receptor occupancy at 10 µM for this entry: C[C@H](NC(=O)/C(C#N)=C/c1cccc(Br)n1)c1ccccc1 [WP1066]
-7.5

Kindly indicate its recorded receptor occupancy at 10 µM. Item: O=C(O)c1ccc(-c2c[nH]c3ncc(-c4ccccc4)cc23)cc1C1CCCC1 [GSK650394]
-8.8

Query receptor occupancy at 10 µM for CCS(=O)(=O)c1cccc(-c2cc(C(=O)NC3CCN(C)CC3)c(C)c3[nH]c4ncc(C)cc4c23)c1 [TAK-901]
-5.9

Determine from records and report receptor occupancy at 10 µM for COc1cc2ncnc(Oc3cccc(NC(=O)Nc4cc(C(C)(C)C(F)(F)F)on4)c3)c2cc1OC [CEP-32496]
-3.7

Read the entry CN(C[C@@H]1COCCO1)S(=O)(=O)Nc1ccc2ccc3ncc(-c4cnn(C)c4)cc3c(=O)c2c1 [MK-2461] and write its reported receptor occupancy at 10 µM.
-2.7

----------
Biological target: LmxCLK1 (Leishmania mexicana, UniProt E9AMP2)
Sequence (E9AMP2 1-422): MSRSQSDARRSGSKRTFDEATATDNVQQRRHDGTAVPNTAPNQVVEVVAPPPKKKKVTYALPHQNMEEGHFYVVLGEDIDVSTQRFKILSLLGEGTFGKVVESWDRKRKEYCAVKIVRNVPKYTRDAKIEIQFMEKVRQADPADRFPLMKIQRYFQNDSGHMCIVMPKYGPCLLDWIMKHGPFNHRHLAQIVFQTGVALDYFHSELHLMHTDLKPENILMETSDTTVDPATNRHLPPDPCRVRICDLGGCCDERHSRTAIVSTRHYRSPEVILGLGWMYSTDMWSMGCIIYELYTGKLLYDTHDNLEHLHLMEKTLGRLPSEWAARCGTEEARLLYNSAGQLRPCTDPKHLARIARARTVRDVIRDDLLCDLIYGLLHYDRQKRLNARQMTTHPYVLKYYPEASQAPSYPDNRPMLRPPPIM
Experiment: biochemical
Assay type: binding
Conditions: DSF, 10 µM compound, 2 µM LmxCLK1, mean of two runs
# reported ΔTm Average; entries follow
Could you give me the number in °C? Just the number is fine.

Some entries whose results are on file:
COMPOUND: COc1cc(Nc2ncc(F)c(Nc3ccc4c(n3)NC(=O)C(C)(C)O4)n2)cc(OC)c1OC [R406 (free base)]
ΔTm Average (°C): 0.0
//
COMPOUND: CCN1/C(=C/C(C)=O)Sc2ccc(OC)cc21
ΔTm Average (°C): 1.3
//
COMPOUND: CCN(CCO)CCCOc1ccc2c(Nc3cc(CC(=O)Nc4cccc(F)c4)[nH]n3)ncnc2c1
ΔTm Average (°C): 0.1

Tell us which ΔTm Average value is on record for CC(C)c1cnn2c(NCc3ccccc3)cc(NCCCCCCN)nc12.Cl [BS-181 HCl]
-0.3

Annotate the compound Cc1c(F)cc(C(=O)NC2CC2)cc1-c1ccc(C(=O)NCC(C)(C)C)cn1 [Losmapimod (GW856553X)] with its measured ΔTm Average.
0.2

----------
target: LmxCLK1 (Leishmania mexicana, UniProt E9AMP2); assay: biochemical; type: binding; conditions: DSF, 10 µM compound, 2 µM LmxCLK1, Run 2
ASSAY_METRIC: ΔTm Run 2 (°C)
Numbers only; they are read as °C.

MOLECULE: Cc1ccc(NC(=O)c2cccc(C(C)(C)C#N)c2)cc1Nc1ccc2ncn(C)c(=O)c2c1 [AZ 628]
ΔTm Run 2 (°C): 0.2

Here's the next entry for you.
Retrieve ΔTm Run 2 measured for Cn1c(Nc2ccc(C(F)(F)F)cc2)nc2cc(Oc3ccnc(-c4ncc(C(F)(F)F)[nH]4)c3)ccc21 [RAF265 (CHIR-265)] and print it.
-0.3

----------
Item-by-item account of ΔTm Average
Molecular target: LmxCLK1 (Leishmania mexicana)
Sequence (E9AMP2 1-422): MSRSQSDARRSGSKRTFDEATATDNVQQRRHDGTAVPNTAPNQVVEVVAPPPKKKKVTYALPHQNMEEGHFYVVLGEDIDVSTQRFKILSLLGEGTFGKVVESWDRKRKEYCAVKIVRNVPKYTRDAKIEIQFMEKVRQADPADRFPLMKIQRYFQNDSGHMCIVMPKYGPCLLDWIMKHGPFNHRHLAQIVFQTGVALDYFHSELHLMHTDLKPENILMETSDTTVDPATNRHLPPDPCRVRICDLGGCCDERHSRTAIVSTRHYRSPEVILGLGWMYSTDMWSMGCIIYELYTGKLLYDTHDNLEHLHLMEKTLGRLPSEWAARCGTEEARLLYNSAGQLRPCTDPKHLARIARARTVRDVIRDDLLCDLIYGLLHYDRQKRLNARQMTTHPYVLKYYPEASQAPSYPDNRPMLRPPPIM
Test: biochemical
Type: binding
Lab note: record the figure alone, no unit after it.

MOLECULE: CN(c1ncccc1CNc1nc(Nc2ccc3c(c2)CC(=O)N3)ncc1C(F)(F)F)S(C)(=O)=O
RECORDED_MEASUREMENT: -0.1

Report ΔTm Average for O=C1NC(=O)/C(=C/c2cccc(C(F)(F)F)c2)S1
-0.2

Give me measured ΔTm Average, please, for this molecule: O=C(NCCO)c1cccc(-c2cc(Nc3ccc(OC(F)(F)F)cc3)ncn2)c1
-0.3

----------
molecular target: UniProt E9AMP2; assay: biochemical; assay type: binding; settings: DSF, 10 µM compound, 2 µM LmxCLK1, mean of two runs
Property: ΔTm Average; scope: individual compounds
Express your answer in °C, writing the number without its unit.

Use these answered entries as a reference point.
COMPOUND: COc1cc2ncc(-c3ccccc3)nc2cc1OC [Tyrphostin AG 1296]
ΔTm Average / °C: 0.2
//
COMPOUND: CC[C@@H]1C(=O)N(C)c2cnc(Nc3ccc(C(=O)N[C@H]4CC[C@H](N5CCN(CC6CC6)CC5)CC4)cc3OC)nc2N1C(C)C [Volasertib (BI 6727)]
ΔTm Average / °C: 0.2
//
COMPOUND: C=CC(=O)N1CCC[C@@H](n2nc(-c3ccc(Oc4ccccc4)cc3)c3c(N)ncnc32)C1 [Ibrutinib (PCI-32765)]
ΔTm Average / °C: 0.0
//
COMPOUND: NC(=O)Nc1sc(-c2ccc(F)cc2)cc1C(N)=O [TPCA-1]
ΔTm Average / °C: 0.2
//
COMPOUND: CC1(C)CNc2cc(NC(=O)c3cccnc3NCc3ccncc3)ccc21.O=P(O)(O)O.O=P(O)(O)O [Motesanib Diphosphate (AMG-706)]
ΔTm Average / °C: 0.2
//
COMPOUND: CC(C)(C)c1cc(C=C(C#N)C#N)cc(Br)c1O [AG-1024]
ΔTm Average / °C: -0.1

Return value of ΔTm Average for input Cc1ccc(S(=O)(=O)/C=C/C#N)cc1 [BAY 11-7082] , no commentary.
-0.3

Note ΔTm Average for the compound shown: CN1CC[C@H](c2c(O)cc(O)c3c(=O)cc(-c4ccccc4Cl)oc23)[C@H](O)C1.Cl [Flavopiridol HCl]
0.0

Write down ΔTm Average measured for item C[C@@H](N)[C@H]1CC[C@H](C(=O)Nc2ccncc2)CC1.Cl.Cl [Y-27632 2HCl]
0.1

Return the recorded ΔTm Average value; entry: Cc1ccccc1-n1c(Cn2ncc3c(N)ncnc32)nc2cccc(C)c2c1=O [PIK-293]
-0.1

Read the entry CNC(=O)c1cc(Oc2ccc(NC(=O)Nc3ccc(Cl)c(C(F)(F)F)c3)c(F)c2)ccn1 [Regorafenib (BAY 73-4506)] and write its reported ΔTm Average.
-0.1
